System: ACHN
Test: NCI tumour cell line growth inhibition, 48 h
Calls of active or inactive are those of the source. Rule as the data show it: active = GI50 up to about 1.1 µM and inactive = higher.
API: response.call in T = active, F = inactive

Give the logged outcome of this assay for the following compound: O=C(NCCCCNCCCNC(=O)OCc1ccccc1)OCc1ccccc1
F

Fill in: this test's call for CCOP(=O)(C[S+](C)[O-])O[C@@H]1C[C@H](C)CC[C@H]1C(C)C (some centres undefined) is ___
F

For Cc1c2ccccc2c(=O)n2c(-c3ccccn3)cccc12 , what call appears in the results of this test?
F

Hello, I am checking results. What call was entered for COc1cc(C2c3cc4c(cc3[C@@H](Nc3ccc(C(=O)O)cc3)C3COC(=O)[C@H]23)OCO4)cc(OC)c1O (some centres undefined) ?
F

Just curious, what result did COc1ccc(S(=O)(=O)NC(CCC(=O)NN)C(=O)NN)cc1 (centres undefined) get here?
F

Could you kindly confirm the outcome this assay logged for Cc1nc2c(O)cc3c4c(=O)n(C)c(=O)n(C)c4n(Cc4ccccc4)c3c2nc1C ?
F

State the result this test recorded for CCOC(=O)c1c(SCc2cc(=O)[nH]c(=O)[nH]2)n(-c2ccccc2)c(=S)n(-c2ccccc2)c1=O .
F

Called result for Cc1cnc2c(c1)C(=O)N(c1ccc(Oc3ccccc3)cc1)S2(=O)=O
F

How was CC1OC(=O)C(C(C)C)NC(=O)C(C(C)C)OC(=O)C(C(C)C)NC(=O)C(C)OC(=O)C(C(C)C)NC(=O)C(C(C)C)OC(=O)C(C(C)C)NC(=O)C(C)OC(=O)C(C(C)C)NC(=O)C(C(C)C)OC(=O)C(C(C)C)NC1=O (centres undefined) classified in this test?
T

---

System: K562
Experiment: NCI tumour cell line growth inhibition, 48 h
Calls of active or inactive are those of the source. Rule as the data show it: active = GI50 up to about 1.1 µM and inactive = higher.
property name: GI50

Need GI50 of O=C1OC(=O)C2C1C1C(c3ccccc3)=C(c3ccccc3)C2(O)C2C(=O)OC(=O)C12 (stereo not drawn) , thanks.
45.1 µM (inactive)

Item under review: COc1ccc(C(=O)C#Cc2cn(C3CC(O)C(CO)O3)c(=O)[nH]c2=O)cc1 (stereo not drawn) . Reported GI50?
36.5 µM (inactive)

GI50 for CC(C)CCCC(=O)CCCCCCC(=O)CCN(O)C(=O)C(N)CO (stereo not drawn) ?
28.3 µM (inactive)

Would you mind telling me what GI50 value was observed for COc1cc(NS(C)(=O)=O)ccc1N1Cc2c[nH]c3ccc4nccc1c4c23 ?
22.5 µM (inactive)

State the recorded GI50 for this entry: O=C(N/N=C/C=C/c1ccccc1)c1ccccc1Nc1ccccc1C(=O)N/N=C/C=C/c1ccccc1
> 100 µM (inactive)

Give its GI50 value. Item: CC(C)(C)/C(O)=C\c1nc2cc(C(F)(F)F)ccc2[nH]c1=O
27.9 µM (inactive)

Look at this compound and give its reported GI50. COC1CC(OC2C(C)OC(OC3C(C)OC(OC4C(C)OC(O[C@H]5CC[C@@]6(C)C(=CC[C@]7(O)[C@@H]6C[C@@H](OC(=O)/C=C/c6ccccc6)[C@@]6(C)[C@]7(O)CC[C@@]6(O)C(C)=O)C5)CC4OC)CC3OC)CC2OC)OC(C)C1O (stereo partly drawn)
> 12.5 µM (inactive)

Using the record for Fc1cccc(F)c1C(Nc1nncs1)Nc1nncs1 , report its GI50.
> 100 µM (inactive)
